- Assay: Compound cytotoxicity, XTT-based colorimetric assay
- Format: cell-based
- Condition context: human, uninfected MT2 cells, day 4, XTT
Exercise: state measured CC50 at 4 days for each of the compounds provided.
Enter your answer as a number in µM; do not include the unit.

get_value(item= CN(C(=O)[C@H](Cc1cc(F)cc(F)c1)NC(=O)NS(=O)(=O)N[C@@H](Cc1cc(F)cc(F)c1)C(=O)N(C)c1ccc(Cl)cc1)c1ccc(Cl)cc1 , readout=CC50 at 4 days) returns 30.3

get_value(item= CCCc1ccc(N(C)C(=O)[C@H](Cc2cc(F)cc(F)c2)NC(=O)NS(=O)(=O)N[C@@H](Cc2cc(F)cc(F)c2)C(=O)N(C)c2ccc(CCC)cc2)cc1 [Example 182B] , readout=CC50 at 4 days) returns 13.4

get_value(item= CN(C(=O)[C@H](Cc1cc(F)cc(F)c1)NC(=O)NS(=O)(=O)N[C@@H](Cc1cc(F)cc(F)c1)C(=O)N(C)c1ccc2c(cnn2C)c1)c1ccc2c(cnn2C)c1 , readout=CC50 at 4 days) returns 96
